Kindly supply the reported log10(EC50) values for the records listed here.
molecular target: human GPR119 receptor (Homo sapiens, UniProt Q8TDV5, S329A/T327A); construct: N-terminal leader […]; expressed in transfected cells; assay: cAMP assay (LANCE cAMP-384) in HEK293 cells stably expressing mutant human GPR119 receptor; type: cell-based; settings: the 38th table, compounds 66-65 to 66-72; read-out: EC50
# values: log10(EC50), units nM

Lab note: need log10(EC50) for CCCc1ccc(CN2CCC(ON=C3CCN(c4cc(F)c(C(=O)NC)cc4F)CC3)CC2)cc1 on human GPR119 receptor (Homo sapiens, UniProt Q8TDV5, S329A/T327A), anyone have it?
2.04

Same question, CCc1ccc(CN2CCC(ON=C3CCN(c4cc(F)c(C(=O)NC)cc4F)CC3)CC2)cc1 this time
1.90

Same question, CNC(=O)c1cc(F)c(N2CCC(=NOC3CCN(Cc4ccc(Cl)cc4)CC3)CC2)cc1F this time
2.56

Same question, CNC(=O)c1cc(F)c(N2CCC(=NOC3CCN(Cc4ccc(C(F)(F)F)cc4)CC3)CC2)cc1F this time
2.19

Same question, CNC(=O)c1cc(F)c(N2CCC(=NOC3CCN(Cc4ccc(-c5cccnc5)cc4)CC3)CC2)cc1F this time
3.10

Same question, CNC(=O)c1cc(F)c(N2CCC(=NOC3CCN(Cc4ccc(-c5cncnc5)cc4)CC3)CC2)cc1F this time
3.35

Same question, CNC(=O)c1cc(F)c(N2CCC(=NOC3CCN(Cc4ccc(C)cc4)CC3)CC2)cc1F this time
2.29

Same question, CNC(=O)c1cc(F)c(N2CCC(=NOC3CCN(Cc4ccc(-c5ccccn5)cc4)CC3)CC2)cc1F this time
2.90

---

Kindly supply the reported pEC50 values for the records listed here.
Molecular target: human GPR119 receptor (Homo sapiens, UniProt Q8TDV5, S329A/T327A)
Construct: N-terminal leader […]; expressed in transfected cells
Sequence (Q8TDV5 with tags, fused parts or gaps T327A/S329A): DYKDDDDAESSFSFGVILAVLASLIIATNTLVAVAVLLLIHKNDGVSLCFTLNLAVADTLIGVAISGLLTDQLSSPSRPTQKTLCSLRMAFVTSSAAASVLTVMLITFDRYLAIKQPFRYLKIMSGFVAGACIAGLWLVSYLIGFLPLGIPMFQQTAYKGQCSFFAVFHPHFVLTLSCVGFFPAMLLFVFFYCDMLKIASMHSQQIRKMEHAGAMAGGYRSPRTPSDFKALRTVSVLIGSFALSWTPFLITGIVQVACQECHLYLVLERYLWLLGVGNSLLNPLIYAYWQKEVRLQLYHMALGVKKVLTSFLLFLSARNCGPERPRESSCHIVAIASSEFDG
Test: cAMP assay (LANCE cAMP-384) in HEK293 cells stably expressing mutant human GPR119 receptor
Assay type: cell-based
Details: cAMP accumulation, HEK293 cells stably expressing mutant human GPR119; read-out: EC50
Schema: pEC50 number; meaning minus log10 of the concentration expressed in molar units.

Lab note: need pEC50 for CC(C)OC(=O)N1CCC(ON=C2CCN(c3cc(F)c(Cn4cncn4)cc3F)CC2)CC1 [Example 14-18] on human GPR119 receptor (Homo sapiens, UniProt Q8TDV5, S329A/T327A), anyone have it?
5.87

Same question, CC(C)OC(=O)N1CCC(ON=C2CCN(c3ncc(CO)cc3F)CC2)CC1 [Example 53-1] this time
6.65

Same question, CC(C)OC(=O)N1CCC(ON=C2CCN(c3cc(F)c(CS(C)(=O)=O)cc3F)CC2)CC1 [Example 13-1] this time
7.52

---

Target: human GPR119 receptor (Homo sapiens, UniProt Q8TDV5, S329A/T327A)
Construct: N-terminal leader […]; expressed in transfected cells
Sequence (Q8TDV5 with tags, fused parts or gaps T327A/S329A): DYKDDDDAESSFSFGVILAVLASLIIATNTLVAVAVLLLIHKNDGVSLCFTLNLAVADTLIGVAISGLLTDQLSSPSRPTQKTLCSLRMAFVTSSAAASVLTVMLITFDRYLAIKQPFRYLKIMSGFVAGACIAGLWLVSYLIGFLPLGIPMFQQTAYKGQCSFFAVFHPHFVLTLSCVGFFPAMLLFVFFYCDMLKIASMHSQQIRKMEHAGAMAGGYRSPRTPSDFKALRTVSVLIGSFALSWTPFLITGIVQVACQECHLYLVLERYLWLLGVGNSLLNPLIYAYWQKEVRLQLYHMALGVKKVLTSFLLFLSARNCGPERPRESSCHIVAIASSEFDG
Experiment: cAMP assay (LANCE cAMP-384) in HEK293 cells stably expressing mutant human GPR119 receptor
Type: cell-based
Details: the 15th table; read-out: EC50
assay_readout: pEC50
Schema: pEC50 number; meaning minus log10 of the concentration expressed in molar units.

Lab note: need pEC50 for COCCCNC(=O)c1cc(F)c(N2CCC(=NOC3CCN(C(=O)OC(C)C)CC3)CC2)cc1F [Example 29-10] on human GPR119 receptor (Homo sapiens, UniProt Q8TDV5, S329A/T327A), anyone have it?
7.55

Same question, CC(C)OC(=O)N1CCC(ON=C2CCN(c3cc(F)c(C(=O)NCCN(C)C)cc3F)CC2)CC1 [Example 29-2] this time
6.35

Same question, CC(C)OC(=O)N1CCC(ON=C2CCN(c3cc(F)c(C(=O)N4CCCC(CN5CCCCC5)C4)cc3F)CC2)CC1 (stereo not drawn) [Example 29-56] this time
6.88

Same question, CC(C)OC(=O)N1CCC(ON=C2CCN(c3cc(F)c(C(=O)NCCO)cc3F)CC2)CC1 [Example 29-11] this time
7.08

Same question, COCCNC(=O)c1cc(F)c(N2CCC(=NOC3CCN(C(=O)OC(C)C)CC3)CC2)cc1F [Example 29-12] this time
7.92

Same question, CC(C)OC(=O)N1CCC(ON=C2CCN(c3cc(F)c(C(=O)N4CCC(CN5CCCC5)CC4)cc3F)CC2)CC1 [Example 29-48] this time
7.16

Same question, CC(C)OC(=O)N1CCC(ON=C2CCN(c3cc(F)c(C(=O)N4CCCCC4CN)cc3F)CC2)CC1 (stereo not drawn) [Example 29-57] this time
6.73

Same question, CC(C)OC(=O)N1CCC(ON=C2CCN(c3cc(F)c(C(=O)NCCCO)cc3F)CC2)CC1 [Example 29-9] this time
7.03

Same question, CC(C)OC(=O)N1CCC(ON=C2CCN(c3cc(F)c(C(=O)N(C)C)cc3F)CC2)CC1 [Example 29-1] this time
6.89

Same question, CNCCN(C)C(=O)c1cc(F)c(N2CCC(=NOC3CCN(C(=O)OC(C)C)CC3)CC2)cc1F [Example 29-5] this time
6.67

Same question, CC(C)OC(=O)N1CCC(ON=C2CCN(c3cc(F)c(C(=O)N4CCCC[C@H]4CN4CCCC4)cc3F)CC2)CC1 [Example 29-31] this time
6.65

Same question, CC(C)OC(=O)N1CCC(ON=C2CCN(c3cc(F)c(C(=O)N4CCN(C)CC4)cc3F)CC2)CC1 [Example 29-4] this time
7.10

---

target: human GPR119 receptor (Homo sapiens, UniProt Q8TDV5, S329A/T327A); construct: N-terminal leader […]; expressed in transfected cells; assay: cAMP assay (LANCE cAMP-384) in HEK293 cells stably expressing mutant human GPR119 receptor; type: cell-based; conditions: the 32nd table; read-out: EC50
Lab note: cut-off is 1 µM. Strictly less in EC50 is yes. Exactly 1 µM or more is no.

# TODO verify EC50 < 1 µM strictly for this compound: CS(=O)(=O)c1ccc(N2CCC(=NOC3CCN(c4ccc(S(C)(=O)=O)cc4F)CC3)CC2)c(F)c1
yes

Same question, CS(=O)(=O)c1ccc(N2CCC(=NOC3CCN(c4ccc(C#N)cn4)CC3)CC2)c(F)c1 this time
no

Same question, Cc1cc(C(F)(F)F)cc(N2CCC(ON=C3CCN(c4ccc(S(C)(=O)=O)cc4F)CC3)CC2)n1 this time
no

Same question, Cc1cc(C)nc(N2CCC(ON=C3CCN(c4ccc(S(C)(=O)=O)cc4F)CC3)CC2)n1 this time
no

Same question, Cc1cccc(N2CCC(ON=C3CCN(c4ccc(S(C)(=O)=O)cc4F)CC3)CC2)n1 this time
no

Same question, CS(=O)(=O)c1ccc(N2CCC(=NOC3CCN(c4ccnc(Cl)n4)CC3)CC2)c(F)c1 this time
no

---

biological target: human GPR119 receptor (Homo sapiens, UniProt Q8TDV5, S329A/T327A); construct: N-terminal leader […]; expressed in transfected cells; assay: cAMP assay (LANCE cAMP-384) in HEK293 cells stably expressing mutant human GPR119 receptor; format: cell-based; conditions: cAMP accumulation, HEK293 cells stably expressing mutant human GPR119; read-out: EC50
Lab note: cut-off is 300 nM. Strictly less in EC50 is True. Exactly 300 nM or more is False.

# TODO verify EC50 < 300 nM strictly for this compound: CC(C)OC(=O)N1CCC(ON=C2CCN(c3cc(F)c(CNCc4nccs4)cc3F)CC2)CC1
False

Same question, Cc1cnccc1N1CCC(=NOC2CCN(C(=O)OC(C)C)CC2)CC1 this time
False

Same question, CC(C)OC(=O)N1CCC(ON=C2CCN(c3ccc(S(C)(=O)=O)cc3)CC2)CC1 this time
False

Same question, COCCN(C)Cc1cc(F)c(N2CCC(=NOC3CCN(C(=O)OC(C)C)CC3)CC2)cc1F this time
False

Same question, CC(C)OC(=O)N1CCC(ON=C2CCN(c3cc(F)c(C(=O)NCCC(=O)O)cc3F)CC2)CC1 this time
False

Same question, CCS(=O)(=O)NCc1cc(F)c(N2CCC(=NOC3CCN(C(=O)OC(C)C)CC3)CC2)cc1F this time
True

Same question, CCNC(=O)NCc1cc(F)c(N2CCC(=NOC3CCN(C(=O)OC(C)C)CC3)CC2)cc1F this time
True

Same question, CCOC(=O)NCc1cc(F)c(N2CCC(=NOC3CCN(C(=O)OC(C)C)CC3)CC2)cc1F this time
True
